Tested on: Staphylococcus epidermidis
Assay: Antibacterial activity against methicillin-resistant Staphylococcus epidermidis 16-5 assessed as reduction in bacterial growth incubated for 18 hrs by agar dilution method
Assay type: functional
Conditions: 16-5, 18 h
Readout: MIC (µg/mL)
Quick reminder: number only, in µg/mL, skip the unit.

For orientation, consider the following solved cases.
{"columns": ["Mol", "Unit symbol", "Readout value"],
 "data": [
  ["C=C[C@]1(C)C[C@@H](OC(=O)CS[C@@H]2CC[C@H](C(=O)OCC)C[C@H]2NS(=O)(=O)c2ccc(OC)cc2)[C@]2(C)[C@H](C)CC[C@]3(CCC(=O)[C@H]32)[C@@H](C)[C@@H]1O", "µg/mL", 0.5],
  ["C=C[C@]1(C)C[C@@H](OC(=O)CS[C@@H]2CC[C@H](C(=O)OCC)C[C@H]2NS(=O)(=O)c2ccc(C#N)cc2)[C@]2(C)[C@H](C)CC[C@]3(CCC(=O)[C@H]32)[C@@H](C)[C@@H]1O", "µg/mL", 0.5],
  ["C=C[C@]1(C)C[C@@H](OC(=O)CS[C@@H]2CC[C@H](C(=O)O)C[C@H]2N)[C@]2(C)[C@H](C)CC[C@]3(CCC(=O)[C@H]32)[C@@H](C)[C@@H]1O", "µg/mL", 4],
  ["C=C[C@]1(C)C[C@@H](OC(=O)CS[C@@H]2CC[C@H](C(=O)OCC)C[C@H]2NS(=O)(=O)c2ccc(C(C)=O)cc2)[C@]2(C)[C@H](C)CC[C@]3(CCC(=O)[C@H]32)[C@@H](C)[C@@H]1O", "µg/mL", 0.25],
  ["C=C[C@]1(C)C[C@@H](OC(=O)CS[C@@H]2CC[C@H](C(=O)OCC)C[C@H]2NS(=O)(=O)c2ccccc2)[C@]2(C)[C@H](C)CC[C@]3(CCC(=O)[C@H]32)[C@@H](C)[C@@H]1O", "µg/mL", 1]
]}

Input C=C[C@]1(C)C[C@@H](OC(=O)CS[C@@H]2CC[C@H](C(=O)OCC)C[C@H]2NS(=O)(=O)c2ccc([N+](=O)[O-])cc2)[C@]2(C)[C@H](C)CC[C@]3(CCC(=O)[C@H]32)[C@@H](C)[C@@H]1O . Output MIC: 0.5

Reported MIC ( C=C[C@]1(C)C[C@@H](OC(=O)CS[C@@H]2CC[C@H](C(=O)OCC)C[C@H]2NS(=O)(=O)c2ccc(Br)cc2)[C@]2(C)[C@H](C)CC[C@]3(CCC(=O)[C@H]32)[C@@H](C)[C@@H]1O ) = 1

Please fill in: MIC reported for C=C[C@]1(C)C[C@@H](OC(=O)CS[C@@H]2CC[C@H](C(=O)OCC)C[C@H]2NS(=O)(=O)c2ccc(Cl)cc2)[C@]2(C)[C@H](C)CC[C@]3(CCC(=O)[C@H]32)[C@@H](C)[C@@H]1O = 0.5

Notebook: C=C[C@]1(C)C[C@@H](OC(=O)CS[C@@H]2CC[C@H](C(=O)OCC)C[C@H]2NS(=O)(=O)c2ccc(NC(C)=O)cc2)[C@]2(C)[C@H](C)CC[C@]3(CCC(=O)[C@H]32)[C@@H](C)[C@@H]1O , MIC read as 0.5

Memo: C=C[C@]1(C)C[C@@H](OC(=O)CS[C@@H]2CC[C@H](C(=O)OCC)C[C@H]2NS(=O)(=O)c2ccc(C)cc2)[C@]2(C)[C@H](C)CC[C@]3(CCC(=O)[C@H]32)[C@@H](C)[C@@H]1O , reported MIC: 0.5

Summary for this molecule, C=C[C@]1(C)C[C@@H](OC(=O)CS[C@@H]2CC[C@@H](N)C[C@H]2O)[C@]2(C)[C@H](C)CC[C@]3(CCC(=O)[C@H]32)[C@@H](C)[C@@H]1O : MIC is 0.25

# molecule C=C[C@]1(C)C[C@@H](OC(=O)CS[C@@H]2CC[C@H](C(=O)OCC)C[C@H]2N)[C@]2(C)[C@H](C)CC[C@]3(CCC(=O)[C@H]32)[C@@H](C)[C@@H]1O ; its MIC = 0.25

// MIC lookup, molecule = C=C[C@]1(C)C[C@@H](OC(=O)CS[C@@H]2CC[C@H](C(=O)OCC)C[C@H]2NS(=O)(=O)c2ccc(F)cc2)[C@]2(C)[C@H](C)CC[C@]3(CCC(=O)[C@H]32)[C@@H](C)[C@@H]1O , result: 1
